Reference source: PubChem BioAssay (NCATS)

- system under test: Glutaminase kidney isoform, mitochondrial (Homo sapiens) (UniProt O94925)
- Sequence (O94925 whole entry, looked up, canonical isoform): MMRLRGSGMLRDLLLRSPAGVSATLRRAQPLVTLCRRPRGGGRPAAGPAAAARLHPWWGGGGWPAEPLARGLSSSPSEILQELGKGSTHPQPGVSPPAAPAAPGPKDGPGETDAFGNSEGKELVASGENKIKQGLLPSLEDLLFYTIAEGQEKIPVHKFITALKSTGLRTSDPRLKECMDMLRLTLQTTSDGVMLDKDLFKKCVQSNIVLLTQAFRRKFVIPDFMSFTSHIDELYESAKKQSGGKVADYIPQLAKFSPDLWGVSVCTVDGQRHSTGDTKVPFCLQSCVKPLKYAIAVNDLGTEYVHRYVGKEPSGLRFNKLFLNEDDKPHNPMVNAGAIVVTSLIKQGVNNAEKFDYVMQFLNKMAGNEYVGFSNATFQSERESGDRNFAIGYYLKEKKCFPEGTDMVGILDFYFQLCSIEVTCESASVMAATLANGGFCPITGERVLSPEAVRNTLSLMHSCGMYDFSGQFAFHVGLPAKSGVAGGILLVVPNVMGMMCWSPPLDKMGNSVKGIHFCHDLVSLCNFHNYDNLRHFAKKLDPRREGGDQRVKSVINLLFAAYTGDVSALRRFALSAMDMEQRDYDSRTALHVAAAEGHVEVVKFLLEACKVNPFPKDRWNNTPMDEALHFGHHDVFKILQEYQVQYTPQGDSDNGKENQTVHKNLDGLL
- protocol notes: qHTS for Inhibitors of Glutaminase (GLS): LOPAC Validation (AID 624146); also: nearly all actives have a fitted effect of over 60% in size
- test settings: glutaminase enzyme activity inhibition; series mostly up to 46.1 µM
Results filed as inconclusive are left out. Calls of active or inactive are those of the source. Calls follow the shape of the dose curve; as a rule, active = well fitted inhibition curve with a large enough effect; inconclusive = small, poorly fitted or top-dose-only effect; inactive = no such curve, though single readings can be large or run the other way.
Select the matching outcome among active, inactive

Take a look at these entries with their results.
| molecule | system under test | label value |
| --- | --- | --- |
| O=C(O)/C=C/c1cnc[nH]1 | Glutaminase kidney isoform, mitochondrial (Homo sapiens) (UniProt O94925) | inactive |
| Cn1ccnc1 | Glutaminase kidney isoform, mitochondrial (Homo sapiens) (UniProt O94925) | inactive |
| CCCCCCC(=O)OC1CC(C)(C)NC(C)(C)C1 | Glutaminase kidney isoform, mitochondrial (Homo sapiens) (UniProt O94925) | inactive |
| C=C1C[C@@]23CC[C@H]4[C@@](C)(CCC[C@@]4(C)C(=O)O)[C@@H]2CC[C@]1(O)C3 | Glutaminase kidney isoform, mitochondrial (Homo sapiens) (UniProt O94925) | inactive |
| Nc1ncnc2c1ncn2C1CCCC1 | Glutaminase kidney isoform, mitochondrial (Homo sapiens) (UniProt O94925) | inactive |
| CC(/C=C/c1cccc(Oc2ccc(F)cc2)c1)N(O)C(N)=O (centres undefined) | Glutaminase kidney isoform, mitochondrial (Homo sapiens) (UniProt O94925) | active |
| CCCC(=O)NCCc1c2n(c3ccc(OC)cc13)CCCc1ccccc1-2 | Glutaminase kidney isoform, mitochondrial (Homo sapiens) (UniProt O94925) | inactive |
| Cn1cc(C(=O)OCC2CCN(CCNS(C)(=O)=O)CC2)c2ccccc21 | Glutaminase kidney isoform, mitochondrial (Homo sapiens) (UniProt O94925) | inactive |
| OC[C@H]1O[C@@H](n2cnc3cncnc32)[C@H](O)[C@@H]1O | Glutaminase kidney isoform, mitochondrial (Homo sapiens) (UniProt O94925) | inactive |
| N[C@H](C(=O)O)[C@H](O)C(=O)O | Glutaminase kidney isoform, mitochondrial (Homo sapiens) (UniProt O94925) | inactive |

Task: Look up the recorded call for CCCCCCCCCCC(C)(C)C(=O)Nc1c(OC)cc(OC)cc1OC in this test.
Result: inactive

Task: Per the assay record, what outcome was assigned to Nc1ccc(CCNc2ncnc3c2ncn3C2OC(CO)C(O)C2O)cc1 (centres undefined) ?
Result: inactive

Task: How was O=C1C2C=CC=CC2=NC(=S)N1CCN1CCC(=C(c2ccc(F)cc2)c2ccc(F)cc2)CC1 (centres undefined) classified in this test?
Result: inactive

Task: I would be grateful if you could indicate the recorded call for OC[C@H]1O[C@H](n2cnc3c(N[C@H]4CCC[C@@H]4O)ncnc32)[C@H](O)[C@@H]1O .
Result: inactive
